Provide the recorded melting point for the entries that follow.

Answered cases to consult:
COc1ccccc1N1CCN(C[C@@H](C)N(C(=O)c2ccccc2)C(=O)c2ccccc2)CC1 ... 115 to 120 °C
Cc1ccc(N2C(=O)C(O)=C(C(=O)c3ccc(N4CCOCC4)cc3)C2c2ccc(OC(F)(F)F)cc2)nn1 (stereo not given) ... 234 °C
Clc1ccc(-c2[nH]nc3c2Cc2ccccc2-3)cc1 ... 266 to 268 °C
CC(C)(C)OC(=O)N1[C@@H](CC2CCCCC2)[C@H](c2ccco2)OC1(C)C ... 52 to 56 °C
C=CC1(F)CN(C2CCCC2)c2nc(Nc3ccc(C(=O)NC4CCCNC4)cc3OC)ncc2N(C)C1=O (stereo not given) ... 169 to 172 °C

Would you mind giving melting point for every molecule in the list below?
1. CC1=CC(=O)c2cc(O)ccc2C1=O
2. CCOC(=O)C1=C(COCCNC(=O)N2CCNC2=O)NC(C)=C(C(=O)OC)C1c1ccccc1Cl (stereo not given)
3. CCOC(=S)c1cnc(C)nc1N
4. O=C(O)Cc1ccc2noc(-c3ccccc3)c2c1
5. O=S(=O)(c1cccs1)N(CC(F)(F)F)c1cccc2cc(-c3nccs3)[nH]c12

175 °C
145 °C
130 to 131 °C
173 to 174 °C
194 to 195 °C
